Kindly state AC50 for each of the entries shown.
EXPERIMENTAL_TARGET: Cytochrome P450 3A4 (Homo sapiens);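 note: CYP3A4 tested as one member of a cytochrome P450 panel screen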
Sequence (P08684 whole entry): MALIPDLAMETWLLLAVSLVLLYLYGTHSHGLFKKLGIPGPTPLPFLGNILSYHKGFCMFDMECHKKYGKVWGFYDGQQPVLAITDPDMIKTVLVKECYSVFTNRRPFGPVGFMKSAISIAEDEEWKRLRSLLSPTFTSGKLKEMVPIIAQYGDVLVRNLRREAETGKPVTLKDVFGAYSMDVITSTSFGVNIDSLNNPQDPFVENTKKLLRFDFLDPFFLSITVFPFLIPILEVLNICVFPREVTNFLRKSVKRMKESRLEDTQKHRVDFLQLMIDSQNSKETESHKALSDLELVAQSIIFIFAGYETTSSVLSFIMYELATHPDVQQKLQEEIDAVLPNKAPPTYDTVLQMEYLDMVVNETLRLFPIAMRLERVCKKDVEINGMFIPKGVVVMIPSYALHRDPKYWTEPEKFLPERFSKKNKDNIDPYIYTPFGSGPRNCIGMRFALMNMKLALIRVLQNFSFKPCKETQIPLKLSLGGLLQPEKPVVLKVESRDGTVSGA

Which AC50 reading was recorded for the compound `CCc1cc2c(NCc3ccco3)ncnc2s1` ? 25.1 µM (inconclusive)

Entry `COc1ccc(CNc2nc(-c3ccc(N(C)C)cc3)nc3ccccc23)c(OC)c1` please 5.01 µM (inconclusive)

Entry `Cc1nc2cncnc2n(Cc2ccc(F)cc2)c1=O` please 15.8 µM (inconclusive)

====

Below are AC50 values recorded for Cytochrome P450 3A4 (Homo sapiens, UniProt P08684).

Known AC50 results, listed for orientation:
[
  {
    "COMPOUND": "Cc1cccnc1NC(=O)C12CCC(C)(C(=O)O1)C2(C)C (stereo unspecified)",
    "EXPERIMENTAL_TARGET": "Cytochrome P450 3A4 (Homo sapiens, UniProt P08684)",
    "AC50": "inconclusive"
  },
  {
    "COMPOUND": "O=C(O)/C=C/C(=O)Nc1ccc(F)cc1F",
    "EXPERIMENTAL_TARGET": "Cytochrome P450 3A4 (Homo sapiens, UniProt P08684)",
    "AC50": "inconclusive"
  },
  {
    "COMPOUND": "CCOC(=O)c1sc(=S)n(-c2cccc(C(F)(F)F)c2)c1SC",
    "EXPERIMENTAL_TARGET": "Cytochrome P450 3A4 (Homo sapiens, UniProt P08684)",
    "AC50": "inconclusive"
  },
  {
    "COMPOUND": "Cn1c(=O)c(-c2ccc(Cl)cc2)nc2cnc(Oc3ccccc3)nc21",
    "EXPERIMENTAL_TARGET": "Cytochrome P450 3A4 (Homo sapiens, UniProt P08684)",
    "AC50": "inconclusive"
  },
  {
    "COMPOUND": "O=C(c1csnn1)N1CCC2(CC1)CN(C(c1ccccc1)c1ccccc1)C2",
    "EXPERIMENTAL_TARGET": "Cytochrome P450 3A4 (Homo sapiens, UniProt P08684)",
    "AC50": "inconclusive"
  }
]

Field: next compound
Which AC50 reading was recorded for the compound `COc1ccc(C(=O)N2CCC3(CC2)CCN(C(c2ccccc2)c2ccccc2)CC3)cc1` ? inconclusive

====

Below are AC50 values recorded for Cytochrome P450 2D6 (Homo sapiens).

Write down the reported AC50 of `CC[C@H](C)C(=O)O[C@H]1CCC=C2C=C[C@H](C)[C@H](CC[C@@H]3C[C@H](O)CC(=O)O3)[C@H]21` , test system: Cytochrome P450 2D6 (Homo sapiens). 31.6 µM (inconclusive)

Entry `CN1C(=O)/C(=N\OC(=O)c2cccc3ccccc23)c2ccccc21` please 12.6 µM (inconclusive)

Entry `COc1ccccc1-c1cc(Nc2ccc(F)cc2)ncn1` please 39.8 µM (inconclusive)

Entry Cc1c(NC(=O)C(Sc2ccccc2)c2ccccc2)cccc1[N+](=O)[O-] (stereo not given) please 3.16 µM (inconclusive)

Entry `O=C1c2ccccc2C(=O)N1CCCCN(C(=O)c1ccc([N+](=O)[O-])cc1)c1ccc(Cl)cc1` please 15.8 µM (inconclusive)

====

EXPERIMENTAL_TARGET: UniProtKB P38532
Sequence (P38532 whole entry): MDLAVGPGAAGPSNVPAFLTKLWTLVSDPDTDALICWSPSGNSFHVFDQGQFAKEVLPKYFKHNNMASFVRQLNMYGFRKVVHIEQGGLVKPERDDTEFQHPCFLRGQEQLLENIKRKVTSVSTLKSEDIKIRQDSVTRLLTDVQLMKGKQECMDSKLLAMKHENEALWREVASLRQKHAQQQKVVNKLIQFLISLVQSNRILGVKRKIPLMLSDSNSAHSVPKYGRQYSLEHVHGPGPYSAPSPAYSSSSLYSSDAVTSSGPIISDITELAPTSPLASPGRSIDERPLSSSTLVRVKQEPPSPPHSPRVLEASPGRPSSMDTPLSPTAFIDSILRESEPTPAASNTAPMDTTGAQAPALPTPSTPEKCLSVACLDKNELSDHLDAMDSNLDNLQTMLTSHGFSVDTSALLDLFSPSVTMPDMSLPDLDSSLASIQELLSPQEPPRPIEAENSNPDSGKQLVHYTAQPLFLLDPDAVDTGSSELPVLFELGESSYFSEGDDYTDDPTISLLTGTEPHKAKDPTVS
ASSAY_TEXT: HSF1 potentiators in luciferase reporter cells, confirmation, cell-based, NIH3T3, luminescence, dose retest (AID 435004);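 note: stress induced by proteasome inhibitor MG132 added 30 min after compound; luciferase reporter driven by HSF1 response element in NIH3T3 cells; actives raise luminescence as potentiators of the MG132 stress response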
Assay type: functional
Calls of active or inactive are those of the source.
Write down the outcome that applies. Available outcomes: T = active, F = inactive

Answer briefly: the call reported for `Cc1ccc(NC(=NOCc2ccc(Cl)cc2Cl)c2nonc2N)c(C)c1` in this assay. F

Entry O=C(CC(c1ccco1)S(=O)(=O)c1ccccc1)c1ccc(F)cc1 (stereo not given) please F

Entry `C=CCNC(=S)N/N=C/c1ccc(-c2ccc(Br)cc2)o1` please T

Entry C[C@H](NC(=O)[C@@H]1CSC2c3ccccc3C(=O)N21)C(=O)NCCc1ccccc1 (stereo not given in full) please T

Entry `COC(=O)c1ccccc1NC(=O)CSc1nc(Nc2ccccc2)nc(N2CCOCC2)n1` please F

Entry `O=c1c2ccccc2nnn1CSc1ncnc2ccccc12` please T

Entry `CC1=Nc2ccccc2/C1=C/c1nc(-c2ccc(C)s2)oc1O` please T

Entry `COc1cc(C(=O)Nc2ccc(S(=O)(=O)N3CCc4ccccc43)cc2)cc(OC)c1OC` please F

Entry `CCOC(=O)COc1ccc(/C=C2/S/C(=N/c3ccccc3)N(Cc3cccnc3)C2=O)cc1OC` please T

Entry `Cn1c2ccc(F)cc2c2ncn(CCN3CCOCC3)c(=O)c21` please F

The values you see were collected from ChEMBL document CHEMBL1201862.
